Hello, the source for this data is ChEMBL document CHEMBL4257451, in case you need it.

Listed here: items and their measured fractional inhibitory concentration index (FICI).
Tested on: Klebsiella pneumoniae
test.description: Synergistic antibacterial activity against Klebsiella pneumoniae SIPI-KPN-1712 assessed as fractional Inhibitory concentration index in presence of polymixin B at 2 ug/ml by broth microdilution method
Type: functional

Data request: Give the observed fractional inhibitory concentration index (FICI) of COCCOC1CCCc2nc(Nc3ccc(C)cc3)sc21 (stereo unspecified) for Klebsiella pneumoniae.
Data returned: 1.03

Data request: Give the observed fractional inhibitory concentration index (FICI) of O=C(OC1CCCc2nc(Nc3ccc(Cl)cc3)sc21)n1ccnc1 (stereo unspecified) for Klebsiella pneumoniae.
Data returned: 1.03

Data request: Give the observed fractional inhibitory concentration index (FICI) of COC1CCCc2nc(Nc3cccc(C)c3C)sc21 (stereo unspecified) for Klebsiella pneumoniae.
Data returned: 1.03

Data request: Give the observed fractional inhibitory concentration index (FICI) of COC1CCCc2nc(Nc3ccc(Cl)cc3Cl)sc21 (stereo unspecified) for Klebsiella pneumoniae.
Data returned: 0.28

Data request: Give the observed fractional inhibitory concentration index (FICI) of O=C(OC1CCCc2nc(Nc3ccc(C(F)(F)F)cc3)sc21)n1ccnc1 (stereo unspecified) for Klebsiella pneumoniae.
Data returned: 0.53

###

Test system: Klebsiella pneumoniae
test.description: Growth inhibition of Klebsiella pneumoniae SIPI-KPN-1712 by broth microdilution method
Assay type: organism-based
test.context: in vitro
experimental.endpoint: MIC

>>> value_reported("Clc1ccc(Nc2nc3ccc(Cl)cc3s2)cc1")
"> 128 µg/mL"
>>> value_reported("O=C(OC1CCCc2nc(Nc3ccc(Cl)cc3)sc21)n1ccnc1 (stereo not drawn)")
"> 128 µg/mL"
>>> value_reported("COC1CCCc2nc(Nc3ccc(C(F)(F)F)cc3)sc21 (stereo not drawn)")
"> 128 µg/mL"

Data request: Input OC1CCCc2nc(Nc3ccc4ccccc4c3)sc21 (stereo not drawn) , output reported MIC.
Data returned: > 128 µg/mL

Data request: Input COC1CCCc2nc(Nc3ccc(N(C)C)cc3)sc21 (stereo not drawn) , output reported MIC.
Data returned: > 128 µg/mL

###

Tested on: Klebsiella pneumoniae
test.description: Growth inhibition of Klebsiella pneumoniae SIPI-KPN-1712 by broth microdilution method
Assay type: organism-based
test.context: in vitro
Listed here: items and their measured MIC.

Take a look at these entries with their results.
>>> value_reported("CCCOC1CCCc2nc(Nc3ccc(F)cc3)sc21 (centres undefined)")
"> 128 µg/mL"
>>> value_reported("O=C(OC1CCCc2nc(Nc3ccccc3)sc21)n1ccnc1 (centres undefined)")
"> 128 µg/mL"
>>> value_reported("COC1CCCc2nc(Nc3ccccc3)sc21 (centres undefined)")
"> 128 µg/mL"

Data request: Input CCCOC1CCCc2nc(Nc3ccc(C)cc3)sc21 (centres undefined) , output reported MIC.
Data returned: > 128 µg/mL

Data request: Input CCOC1CCCc2nc(Nc3ccc(Cl)cc3)sc21 (centres undefined) , output reported MIC.
Data returned: > 128 µg/mL

Data request: Input COC1CCCc2nc(Nc3ccccc3Cl)sc21 (centres undefined) , output reported MIC.
Data returned: > 128 µg/mL

Data request: Input COC1CCCc2nc(Nc3cccc(Cl)c3)sc21 (centres undefined) , output reported MIC.
Data returned: > 128 µg/mL

Data request: Input CCOC1CCCc2nc(Nc3ccc(Br)cc3)sc21 (centres undefined) , output reported MIC.
Data returned: > 128 µg/mL

Data request: Input Clc1ccc(Nc2nc3c(s2)C(OC2CCCC2)CCC3)cc1 (centres undefined) , output reported MIC.
Data returned: > 128 µg/mL

###

Listed here: items and their measured fractional inhibitory concentration index (FICI).
Test system: Klebsiella pneumoniae
test.description: Synergistic antibacterial activity against Klebsiella pneumoniae SIPI-KPN-1712 assessed as fractional Inhibitory concentration index in presence of polymixin B at 2 ug/ml by broth microdilution method
Assay type: functional
The answer should be written as a number, with no unit following it.

>>> value_reported("CCOC1CCCc2nc(Nc3ccc(Cl)cn3)sc21 (configuration not stated)")
0.53
>>> value_reported("COC1CCCc2nc(Nc3ccc4ccccc4n3)sc21 (configuration not stated)")
1.03
>>> value_reported("COC1CCCc2nc(Nc3cccc(C)c3)sc21 (configuration not stated)")
1.03
>>> value_reported("COC1CCCc2nc(NCc3ccccc3)sc21 (configuration not stated)")
1.03
>>> value_reported("O=C(OC1CCCc2nc(Nc3ccccc3)sc21)n1ccnc1 (configuration not stated)")
0.53

Data request: Input COC1CCCc2nc(Nc3ccc(C)cc3)sc21 (configuration not stated) , output reported fractional inhibitory concentration index (FICI).
Data returned: 0.53

Data request: Input COC1CCCc2nc(Nc3ccc([N+](=O)[O-])cc3)sc21 (configuration not stated) , output reported fractional inhibitory concentration index (FICI).
Data returned: 0.53

###

Test system: Klebsiella pneumoniae
test.description: Synergistic antibacterial activity against Klebsiella pneumoniae SIPI-KPN-1712 assessed as fractional Inhibitory concentration index in presence of polymixin B at 2 ug/ml by broth microdilution method
Type: functional
Listed here: items and their measured fractional inhibitory concentration index (FICI).
The answer should be written as a number, with no unit following it.

Take a look at these entries with their results.
>>> value_reported("COC1CCCc2nc(Nc3ccccc3)sc21 (centres undefined)")
1.03
>>> value_reported("CCOC1CCCc2nc(Nc3ccc(F)cc3)sc21 (centres undefined)")
0.53
>>> value_reported("OC1CCCc2nc(Nc3ccc(Cl)cc3)sc21 (centres undefined)")
0.05

Data request: Input Cc1ccc(Nc2nc3c(s2)C(OC(=O)n2ccnc2)CCC3)cc1 (centres undefined) , output reported fractional inhibitory concentration index (FICI).
Data returned: 1.03

Data request: Input CCOC1CCCc2nc(Nc3ccc(Oc4ccccc4C)cc3)sc21 (centres undefined) , output reported fractional inhibitory concentration index (FICI).
Data returned: 1.03

Data request: Input CCOC1CCCc2nc(Nc3ccc(C)cc3)sc21 (centres undefined) , output reported fractional inhibitory concentration index (FICI).
Data returned: 0.16

Data request: Input Clc1ccc(Nc2nc3ccccc3s2)cc1 , output reported fractional inhibitory concentration index (FICI).
Data returned: 1.03

Data request: Input COC1CCCc2nc(Nc3ccc(C(F)(F)F)cc3)sc21 (centres undefined) , output reported fractional inhibitory concentration index (FICI).
Data returned: 0.28

Data request: Input OC1CCCc2nc(Nc3ccc(Cl)cn3)sc21 (centres undefined) , output reported fractional inhibitory concentration index (FICI).
Data returned: 0.53

###

Tested on: Klebsiella pneumoniae
test.description: Synergistic antibacterial activity against Klebsiella pneumoniae SIPI-KPN-1712 assessed as polymixin B MIC at 4 ug/ml by broth microdilution method (reference value: 32 ug/ml)
Type: functional
experimental.endpoint: log10(MIC) (log10 of the value in µg/mL)
Plainly stated, the numbers are log10 of MIC given in µg/mL.

>>> value_reported("COC1CCCc2nc(NCc3ccccc3)sc21 (configuration not stated)")
1.51
>>> value_reported("OC1CCCc2nc(Nc3ccccc3)sc21 (configuration not stated)")
1.51
>>> value_reported("COC1CCCc2nc(Nc3ccccc3C)sc21 (configuration not stated)")
1.51
>>> value_reported("COC1CCCc2nc(Nc3ccc4ccccc4c3)sc21 (configuration not stated)")
1.51
>>> value_reported("OC1CCCc2nc(Nc3ccc(F)cc3)sc21 (configuration not stated)")
1.51
>>> value_reported("CC(C)OC1CCCc2nc(Nc3ccc(Cl)cc3)sc21 (configuration not stated)")
0.00

Data request: Input COC1CCCc2nc(Nc3ccc(C(C)=O)cc3)sc21 (configuration not stated) , output reported log10(MIC).
Data returned: 1.20

Data request: Input COC1CCCc2nc(Nc3cccnc3)sc21 (configuration not stated) , output reported log10(MIC).
Data returned: 1.20

Data request: Input CCOC1CCCc2nc(Nc3ccc(Cl)cn3)sc21 (configuration not stated) , output reported log10(MIC).
Data returned: 1.20

###

System: Klebsiella pneumoniae
test.description: Synergistic antibacterial activity against Klebsiella pneumoniae SIPI-KPN-1712 assessed as fractional Inhibitory concentration index in presence of polymixin B at 2 ug/ml by broth microdilution method
Type: functional
experimental.endpoint: fractional inhibitory concentration index (FICI)
The answer should be written as a number, with no unit following it.

>>> value_reported("COC1CCCc2nc(Nc3cccc(F)c3)sc21 (configuration not stated)")
1.03
>>> value_reported("COc1ccc(Nc2nc3c(s2)C(OC)CCC3)cc1 (configuration not stated)")
0.53
>>> value_reported("COC1CCCc2nc(Nc3ccc(I)cc3)sc21 (configuration not stated)")
0.53
>>> value_reported("COC1CCCc2nc(Nc3ccc(C(C)=O)cc3)sc21 (configuration not stated)")
0.53
>>> value_reported("CCCOC1CCCc2nc(Nc3ccc(F)cc3)sc21 (configuration not stated)")
0.53

Data request: Input COC1CCCc2nc(Nc3ccc(Cl)cn3)sc21 (configuration not stated) , output reported fractional inhibitory concentration index (FICI).
Data returned: 0.53

Data request: Input COC1CCCc2nc(Nc3ccccc3C)sc21 (configuration not stated) , output reported fractional inhibitory concentration index (FICI).
Data returned: 1.03
